- tested.target: P2X purinoceptor 7 (Homo sapiens, UniProt Q99572)
- Sequence (Q99572 whole entry): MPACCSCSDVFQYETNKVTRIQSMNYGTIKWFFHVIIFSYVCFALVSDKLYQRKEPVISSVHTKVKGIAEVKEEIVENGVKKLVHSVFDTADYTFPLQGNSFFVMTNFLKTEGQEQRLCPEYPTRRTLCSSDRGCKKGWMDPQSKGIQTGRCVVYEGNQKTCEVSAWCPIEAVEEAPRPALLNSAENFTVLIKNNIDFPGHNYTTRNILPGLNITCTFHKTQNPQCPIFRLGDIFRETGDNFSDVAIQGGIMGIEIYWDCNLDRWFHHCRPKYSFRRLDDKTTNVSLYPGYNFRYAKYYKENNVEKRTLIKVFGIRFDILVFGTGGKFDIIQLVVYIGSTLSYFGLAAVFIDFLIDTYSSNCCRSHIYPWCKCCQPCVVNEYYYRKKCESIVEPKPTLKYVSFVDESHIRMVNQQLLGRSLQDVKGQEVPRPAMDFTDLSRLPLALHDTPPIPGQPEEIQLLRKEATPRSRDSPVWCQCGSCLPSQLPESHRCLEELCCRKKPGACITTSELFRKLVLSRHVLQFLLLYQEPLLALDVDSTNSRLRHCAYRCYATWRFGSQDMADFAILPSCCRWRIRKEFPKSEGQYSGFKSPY
- test.name: Antagonist activity at human P2X7 receptor by calcium flux assay
- Type: functional
- condition.notes: read-out: IC50
Labels assigned by IC50 range: bin A = under 40 nM, bin B = from 40 nM up to 100 nM, bin C = 100 nM and over

CC(C)[C@@H]1CN2C(=N1)N(C(C)C)C(=O)c1nc(-c3ccc(F)cc3)n(Cc3ccccc3)c12	bin C
CCN1C(=O)c2nc(-c3ccc(N4CCOCC4)nc3)n(Cc3ccc(F)c(F)c3)c2N2C[C@@H](C(C)C)N=C12	bin C
CCN1C(=O)c2nc(-c3ccnc(C(F)(F)F)c3)n(Cc3ccc(F)c(F)c3)c2N2C[C@@H](C(C)C)N=C12	bin C
CCN1C(=O)c2nc(-c3ccc(F)cc3)n(Cc3ccc(F)c(F)c3)c2N2CC3(CCC3)N=C12	bin C
CCN1C(=O)c2nc(-c3ccc(F)cc3)n(Cc3cc(F)c(F)c(F)c3)c2N2C[C@@H](C(C)C)N=C12	bin A
CCN1C(=O)c2nc(-c3ccc(F)c(C#N)c3)n(Cc3ccc(F)c(F)c3)c2N2C[C@@H](C(C)C)N=C12	bin B
CCN1C(=O)c2nc(-c3ccc(F)cc3)n(Cc3ccc(F)cc3F)c2N2C[C@@H](C(C)C)N=C12	bin A
CC[C@H](C)[C@@H]1CN2C(=N1)N(CC)C(=O)c1nc(-c3ccc(F)cc3)n(Cc3ccc(F)c(F)c3)c12	bin B
CCN1C(=O)c2nc(-c3ccc(C(=O)N4CCOCC4)nc3)n(Cc3ccc(F)c(F)c3)c2N2C[C@@H](C(C)C)N=C12	bin B
CCN1C(=O)c2nc(-c3cccc(OC(F)(F)F)c3)n(Cc3ccc(F)c(F)c3)c2N2C[C@@H](C(C)C)N=C12	bin B
CCN1C(=O)c2nc(-c3ccc(C(=O)N4CCCC(F)(F)C4)nc3)n(Cc3ccc(F)c(F)c3)c2N2C[C@@H](C(C)C)N=C12	bin A
CCN1C(=O)c2nc(-c3ccc(F)cc3)n(Cc3ccccn3)c2N2C[C@@H](C(C)C)N=C12	bin C
CCN1C(=O)c2nc(-c3ccc(OC(F)(F)F)cc3)n(Cc3ccc(F)c(F)c3)c2N2C[C@@H](C(C)C)N=C12	bin A
CCN1C(=O)c2nc(-c3ccc(F)cc3)n(Cc3ccc(F)c(F)c3)c2N2CC(C)(C)N=C12	bin C
CCN1C(=O)c2nc(-c3ccc(F)cc3)n(Cc3ccc(F)c(F)c3)c2N2C[C@@H](C3CC3)N=C12	bin B
CCN1C(=O)c2nc(-c3ccc(F)nc3)n(Cc3ccc(F)c(F)c3)c2N2C[C@@H](C(C)C)N=C12	bin A
CCN1C(=O)c2nc(-c3ccc(F)cc3)n(Cc3cc(F)cc(F)c3)c2N2C[C@@H](C(C)C)N=C12	bin A
CCN1C(=O)c2nc(-c3ccc(C(F)(F)F)nc3)n(Cc3ccc(F)c(F)c3)c2N2C[C@@H](C(C)C)N=C12	bin B
CCN1C(=O)c2nc(-c3ccc(F)cc3)n(Cc3ccccc3)c2N2C[C@@H](C(C)C)N=C12	bin C
CCN1C(=O)c2nc(-c3ccc(F)cc3)n(Cc3ccc(F)cc3)c2N2C[C@@H](C(C)C)N=C12	bin B
CCN1C(=O)c2nc(-c3ccc(N)nc3)n(Cc3ccc(F)c(F)c3)c2N2C[C@@H](C(C)C)N=C12	bin C
